assay: Toxicity liver stage against HepG2, at 10uM; format: cell-based; design: test concentration 10 uM, cell line HepG2-A16-CD81EGFP; details: human, HepG2-A16-CD81EGFP cells; read-out: INHIBITION
In this section, each of the compounds is paired with its reported cytotoxicity at 10 µM.
Only the number, expressed in %, is required.

• CN(C)CC1CN(Cc2ccc3c(c2)OCO3)Cc2nccn2C1 (centres undefined) = -0.362
• Cc1c(CNC(=O)C2CCCN2C(=O)C2CC2)oc2ccccc12 (centres undefined) = 5.6
• COc1cc(C(=O)N(Cc2cnn(C)c2)C(C)C)ccc1OC(C)C = -6.02
• Cc1noc(-c2ccc(N3CCCC(C(N)=O)C3)nc2)n1 (centres undefined) = 9.36
• CCC(C)N(Cc1cccnc1)C(=O)c1ccc(OC)cc1O (centres undefined) = 8.65

Sure, the documented cytotoxicity at 10 µM for Nc1cc(N2CCCC2c2cnccn2)ncn1 (centres undefined) is 0.153

Sure, the documented cytotoxicity at 10 µM for Cn1ccnc1CN1CCN2C[C@H](Oc3ccccc3)C[C@H]2C1 is 7.14

Sure, the documented cytotoxicity at 10 µM for Cc1cccc(C2CCCN(S(=O)(=O)c3cccnc3)C2)n1 (centres undefined) is 4.05

Sure, the documented cytotoxicity at 10 µM for COCCC1(CO)CCCN(CCCc2ccccc2)C1 (centres undefined) is -1.4

Sure, the documented cytotoxicity at 10 µM for CC(=O)N1CCN(CCCSCc2ccccc2)CC1 is 1.64
